- measured-on: Human autotaxin enzyme (Homo sapiens, UniProt Q13822)
- Construct: purchased R&D System
- measurement-description: Evaluation of autotaxin inhibitor, 18:0 Lyso PC / choline assay (Test Example 2)
- Assay type: biochemical
- test-conditions: human autotaxin enzyme, 18:0 Lyso PC substrate, choline assay, room temperature 2 hours; read-out: Inhibitor activity (IC50)
- Description: Solution B containing 100 mM Tris-HCl buffer (pH7.5), 150 mM NaCl, 5 mM MgCl2, and 0.05% Triton X-100 was prepared. Human autotaxin enzyme (purchased from R&D System) was diluted with Solution B, and 2.5 μl of which was added to a solution of test compound in DMSO. […] The fluorescent dye Resorufin, which was produced by the reaction, was detected. The fluorescence was detected using ViewLux (PerkinElmer, Inc.) with a excitation wavelength of 531 nm and a fluorescence wavelength of 598 nm. […]
pIC50: −log10 of the molar value.
quantity: pIC50

Below are worked cases with known answers.
COC(=O)Nc1cc(Cl)ccc1-c1cc(=O)n(CC(=O)NC2(c3ccc(F)cc3)COC2)c(C)n1 [Compound I-0480] : 7.00 to 8.00
CC(=O)Nc1cc(Cl)ccc1-c1cc(=O)n(Cc2cccc(C(=O)O)c2)c(C)n1 [Compound I-0267] : > 8.00
CC(C)(C)C(=O)Nc1cc(Cl)ccc1-c1cc(=O)n(CC(=O)N2CCC(C(N)=O)CC2)cn1 [Compound I-0468] : 7.00 to 8.00
Cc1nc(-c2ccc(Cl)cc2NC(=O)C(C)(C)C)cc(=O)n1CCO [Compound I-0371] : ≤ 6.00

For record O=C(Cn1c(CCCC(F)(F)F)nc(-c2ccc(C(F)(F)F)cc2)cc1=O)NCc1nn[nH]n1 [Compound I-0331] the listed pIC50 is > 8.00

For record Cc1nc(-c2ccc(C#N)cc2NC(=O)C(C)(C)C)cc(=O)n1CC(=O)NC1(c2nc(=O)o[nH]2)CC1 [Compound I-0385] the listed pIC50 is 7.00 to 8.00

For record CCCCCc1nc(-c2ccc(Cl)cc2)cc(=O)n1CC(=O)N(C)Cc1ccccc1 [Compound I-0036] the listed pIC50 is 6.00 to 7.00

---

- measured-on: Human autotaxin enzyme (Homo sapiens)
- Construct: purchased R&D System
- measurement-description: Evaluation of autotaxin inhibitor, 18:0 Lyso PC / choline assay (Test Example 2)
- Assay type: biochemical
- test-conditions: human autotaxin enzyme, 18:0 Lyso PC substrate, choline assay, room temperature 2 hours; read-out: Inhibitor activity (IC50)
Listing of recorded IC50 by entry.

Below are worked cases with known answers.
CNC(=O)CN1CCC(NC(=O)Cn2c(CCCC(F)(F)F)nc(-c3ccc(Cl)cc3)cc2=O)CC1 : 100 to 1000 nM
CCCCCc1nc(-c2ccc(Cl)cc2)cc(=O)n1CC(=O)NCCC#N : 10 to 100 nM
CS(=O)(=O)CCNC(=O)c1cccc(Cn2c(CCCC(F)(F)F)nc(-c3ccc(Cl)cc3)cc2=O)c1 : 100 to 1000 nM

// switching to the query compound
For record O=C(c1cccc(Cn2c(CCCC(F)(F)F)nc(-c3ccc(Cl)cc3)cc2=O)c1)N1CCC2(COC2)C1 the listed IC50 is < 10 nM

---

- measured-on: Human autotaxin enzyme (Homo sapiens)
- Construct: purchased R&D System
- measurement-description: Evaluation of autotaxin inhibitor, 18:0 Lyso PC / choline assay (Test Example 2)
- Assay type: biochemical
- test-conditions: human autotaxin enzyme, 18:0 Lyso PC substrate, choline assay, room temperature 2 hours; read-out: Inhibitor activity (IC50)
- Procedure: Solution B containing 100 mM Tris-HCl buffer (pH7.5), 150 mM NaCl, 5 mM MgCl2, and 0.05% Triton X-100 was prepared. Human autotaxin enzyme (purchased from R&D System) was diluted with Solution B, and 2.5 μl of which was added to a solution of test compound in DMSO. […] The fluorescent dye Resorufin, which was produced by the reaction, was detected. The fluorescence was detected using ViewLux (PerkinElmer, Inc.) with a excitation wavelength of 531 nm and a fluorescence wavelength of 598 nm. […]
quantity: IC50

Below are worked cases with known answers.
CC(C)(C)C(=O)Nc1cc(Cl)ccc1-c1cc(=O)n(Cc2cccc(C(=O)NCc3c[nH]nn3)c2)cn1 [Compound I-0488] : 100 to 1000 nM
CC(C)(C)OC(=O)Cn1c(CCCC(F)(F)F)nc(-c2ccc(Cl)cc2C=O)cc1=O [Compound I-0296] : 100 to 1000 nM
CCCCCc1nc(-c2ccc(Cl)cc2)cc(=O)n1CC(=O)NCC1CCC(=O)NC1 (stereo not shown) [Compound I-0037] : 100 to 1000 nM

For record CCCCCc1nc(-c2ccc(Cl)cc2)cc(=O)n1CC(=O)NCC(O)Cc1ccccc1 (stereo not shown) [Compound I-0088] the listed IC50 is 10 to 100 nM

For record COC(=O)Nc1cc(Cl)ccc1-c1cc(=O)n(CC(=O)NC2COC2)c(C)n1 [Compound I-0393] the listed IC50 is 10 to 100 nM

For record Cc1nc(-c2ccc(Cl)cc2NC(=O)C2CC2)cc(=O)n1Cc1cccc(C(=O)O)c1 [Compound I-0279] the listed IC50 is < 10 nM

For record Cc1nc(-c2ccc(C#N)cc2NC(=O)C2CC2)cc(=O)n1CC(=O)NCC1(CO)COC1 [Compound I-0287] the listed IC50 is 10 to 100 nM

For record COC(=O)Nc1cc(Cl)ccc1-c1cc(=O)n(CC(=O)N2CCN(CC(F)(F)F)CC2)c(C)n1 [Compound I-0481] the listed IC50 is 10 to 100 nM
